- Tested on: DU-145 prostate
- test.name: NCI tumour cell line growth inhibition, 48 h
// reported TGI per item
reported.endpoint: TGI (µM)

> print(dat)
                                    compound  reported.endpoint  bound.sign  readout.number
 1  Cc1cc(C)n(-c2nnc3n2N=C(c2ccc(-c4ccccc4)cc2)CS3)n1                TGI           >             100
 2  COc1ccc(N=Nc2c3c(c(O)c4ccccc24)CCC(C)(C)O3)cc1                TGI           =            71.8
 3  C[C@H]1CCC/C=C/[C@@H]2C[C@H](O)C[C@H]2[C@H](O)[C@@H](SCC(O)CO)CC(=O)O1 (stereo not given in full)                TGI           =            39.2
 4  Cc1cc2nc(-c3cc(C(C)(C)C)c(O)c(C(C)(C)C)c3)[nH]c2cc1C                TGI           >             100
 5  OCC(O)C(O)C(O)/C=N/Nc1nc(O)c(/C=C2\C=Nc3ccccc32)[nH]1 (stereo not given)                TGI           >             100
 6  Clc1ccc(N=CNc2ccc(-c3nc4ccccc4o3)cc2)cc1                TGI           =            38.2
 7  COC(=O)c1cc(/C=C/c2ccc(S(N)(=O)=O)cc2)ccc1O                TGI           >             100
 8          Nc1ccc2nc3n(c2c1)C(=O)c1ccccc1-3                TGI           >             100
 9  COC(=O)c1cc(C)ccc1CC(Cc1ccc(C)cc1)C(=O)OC (stereo not given)                TGI           >             100
10        NC(=S)N/N=C/c1cc(-c2cccc(N)c2)ccn1                TGI           =              12

----------
// reported TGI per item
- Tested on: NCI-H226 lung
- test.name: NCI tumour cell line growth inhibition, 48 h
reported.endpoint: TGI

> print(dat)
                                    molecule    test.target    result
 1  Cn1c(=O)c2c(ncn2CC(=O)Nc2ccc(-c3ccccc3)nn2)n(C)c1=O  NCI-H226 lung  > 100 µM
 2  CCCCCCCCCCCCOC1C(C(CC(=O)NCCN2CCCC2)NS(=O)(=O)c2cc(Cl)cc(Cl)c2)OC2OC(C)(C)OC21 (stereo not given)  NCI-H226 lung   4.04 µM
 3  C=CCn1c2c(sc1=S)C(S)N=CN2 (stereo not given)  NCI-H226 lung  > 100 µM
 4   Cc1ccc(S(=O)(=O)NC(=O)NNc2ccc(F)cc2)cc1  NCI-H226 lung  > 100 µM
 5  Cc1cc(C(C)(C)C)cc(Cc2cc(C(C)(C)C)cc(Cc3cc(C(C)(C)C)cc(C)c3O)c2O)c1O  NCI-H226 lung   24.6 µM
 6    COc1cc(CC(C)N)ccc1O (stereo not given)  NCI-H226 lung  > 100 µM
 7  CC(C)(C)OC(=O)N1N=NC2C1C1CC(OCc3ccccc3)(OCc3ccccc3)C2O1 (stereo not given)  NCI-H226 lung   55.4 µM
 8  COc1ccc2c(c1)C(C)Cc1c(ncnc1-n1cnc3cc(C)ccc31)N2C (stereo not given)  NCI-H226 lung   16.3 µM
 9             CC(C)CCn1nc(N)c2nc3ccccc3nc21  NCI-H226 lung  > 100 µM
10  O=C(N/N=C/c1ccc([N+](=O)[O-])o1)c1ccc(O)cc1  NCI-H226 lung  > 100 µM

----------
- Test system: NCI-H23 lung
- test.name: NCI tumour cell line growth inhibition, 48 h
Where a SMILES comes first, the peptide text is derived from it. The star is where a group is joined. Bn = c1ccc(C*)cc1
reported.endpoint: TGI

> print(dat)
                                    compound    result
 1        [F][Sn]([F])([c]1ccccc1)[c]1ccccc1    3.7 µM
 2  CC(C)(C)OC(=O)n1c(-c2ccccc2F)cc(=O)c2cc3c(cc21)OCO3  > 100 µM
 3  COc1ccc(-c2csc(NC(=O)CSc3nc(C)c(-c4ccccc4)n3Nc3ccccc3)n2)cc1  > 100 µM
 4  O=C1CC(Sc2nc3ccc(I)cc3c(=O)n2Cc2ccccc2)C(=O)NN1 (stereo not given)   30.1 µM
 5  O=c1n(Cc2ccccc2)c(=O)n2c(=O)n(Cc3ccccc3)c(=O)n12  > 100 µM
 6    CC(C)(C)C(=O)C(Cc1ccccc1)C(=O)C(C)(C)C  > 100 µM
 7  COc1cc([C@@H]2c3cc4c(cc3[C@@H](c3c(O)cc(O)c5c3O[C@H](c3ccc(O)c(O)c3)[C@@H](O)C5)[C@H]3COC(=O)[C@H]23)OCO4)cc(OC)c1O  > 100 µM
 8  CC1C(c2ccc3c(c2)OCO3)c2cc3c(cc2OC1N1CCOCC1)OCO3 (stereo not given)  > 100 µM
 9  COC(=O)C(CC(C)C)NC(=O)C(N)Cc1ccc(OCc2ccccc2)cc1 (stereo not given) (H-Tyr(Bn)-Leu-OMe; configuration not given here)   > 10 µM
10  COC(=O)C1(Cc2ccc3c(c2)CCC3)Cc2ccccc2C1=O (stereo not given)   95.4 µM
11     C/C(=N\NC(=S)N1CC2CCC(CC2)C1)c1ccccn1   3.34 µM
12  CC1=C(c2cc(C(=O)Nc3ccc(Cl)cc3)nc(=S)[nH]2)Sc2ccccc2N1  > 100 µM
13  CCOC(=O)Cn1c(=O)n(C)c(=O)c2c1ncn2Cc1ccccc1  > 100 µM
14  CC12CC1C(c1cccc([N+](=O)[O-])c1)(c1cccc([N+](=O)[O-])c1)N=N2 (stereo not given)   51.5 µM
15                   CCCCC/C(C=O)=C\c1ccccc1  > 100 µM
16  COC(=O)C1=C(O)C(C(=O)OC)[C@@]2(O)[C@@H](C(=O)OC)[C@H](C)[C@@H](C)[C@@H]1[C@@H]2C(=O)OC (stereo not given in full)  > 100 µM
17  O=C(OCc1ccccc1)C(Cc1ccccc1)N(Cc1ccccc1)Cc1ccccc1 (stereo not given)  > 100 µM
18                  CCCCC#CS(=O)(=O)C(F)(F)F  > 100 µM
19  O=C(CCc1cccc(O)c1)NCCCNC(=O)CCc1cccc(O)c1  > 100 µM
20  CC1=CC(=O)CC2(C)CCC(C(C)CC(=O)CC(C)C)CC12 (stereo not given)  > 100 µM

----------
- Tested on: CAKI-1 renal
- test.name: NCI tumour cell line growth inhibition, 48 h
reported.endpoint: TGI

> print(dat)
                                    compound  reported.endpoint     result
 1  Cc1cccc(C)c1NC(=O)C(=O)CC(=O)c1cccc([N+](=O)[O-])c1                TGI   > 100 µM
 2      CCOc1ccccc1NC(=O)C(=O)Cc1nc2ccccc2s1                TGI   > 100 µM
 3                  CCCCC#CS(=O)(=O)C(F)(F)F                TGI   > 100 µM
 4  CCCCCc1ccc(S(=O)(=O)Nc2cc(-c3csc(NC(C)=O)n3)ccc2N2CCN(C)CC2)cc1                TGI    9.48 µM
 5  CC(C)(C)OC(=O)n1c(-c2ccccc2F)cc(=O)c2cc3c(cc21)OCO3                TGI  > 37.3 µM
 6  CCCCN(CCCC)C(=C(C(Cl)=C(Cl)Cl)[N+](=O)[O-])N(CCCC)CCCC                TGI   > 100 µM
 7  O=C([CH-]C(=O)c1ccccc1)c1ccccc1.O=C([CH-]C(=O)c1ccccc1)c1ccccc1.[O]=[U+2]=[O]                TGI    15.6 µM
 8           O=c1[nH]c(=O)n([C@H]2CCCO2)cc1F                TGI  > 5000 µM
 9  CC(O)CC(O)(C(F)(F)F)C(F)(F)F (stereo not given)                TGI    > 10 µM
10  CC(C)C1=C2CCC3(C)C(CCC4C5C6OCC5(CCC6(C)C)CCC43C)C2(C)CC1 (stereo not given)                TGI    38.3 µM
